system: Bel-7402; assay: Antiproliferative activity against human Bel7402 cells after 72 hrs by CCK-8 assay; format: functional, cell-based; settings: Bel-7402, 72 h
Quantity: IC50

Here are 2 compounds together with their reported answers.
compound=COc1ccc2c(c1)c(CC(=O)O)c(C)n2C(=O)c1ccc(Cl)cc1 quantity=IC50 recorded_value="> 100 µM"
compound="CC(C)Cc1ccc(C(C)C(=O)O)cc1 (stereo not drawn)" quantity=IC50 recorded_value="> 100 µM"

INPUT: Give the reported IC50 for CC(=O)Oc1ccccc1C(=O)O (system: Bel-7402).
OUTPUT: > 100 µM

// data source = ChEMBL document CHEMBL4038272
